# Test system: AhR
# measurement protocol: AhR antagonist screening using Tg(cyp1a:egfp) zebrafish
# Format: in vivo
# Set-up: key: - no inhibition; + weak; ++ mild; +++ moderate; ++++ high; +++++ very high
# condition summary: extent of GFP reduction in Tg(cyp1a:egfp) zebrafish compared to the TCDD (2 nM) control; 100 nM; 48 h
value type: AhR Antagonist Activity at 100 nM

See these solved cases before continuing.
# molecule, AhR Antagonist Activity at 100 nM
rows = [
    ("CC(C)n1cc2nc(-c3cccc(N)c3)nc(NCCc3c[nH]c4ccccc34)c2n1", "-"),
    ("CC(C)n1cc2nc(-c3ccccc3)nc(NCCc3c[nH]c4ccccc34)c2n1", "+"),
    ("CC(=O)c1cccc(-c2nc(NCCc3c[nH]c4ccccc34)c3nn(C(C)C)cc3n2)c1", "-"),
    ("CC(C)n1cc2nc(-c3cccc(C#N)c3)nc(NCCc3c[nH]c4ccccc34)c2n1", "++++"),
    ("CC(C)n1cc2nc(-c3cccc(C(=O)OC(C)(C)C)c3)nc(NCCc3c[nH]c4ccccc34)c2n1", "-"),
    ("CC(C)n1cc2nc(-c3ccc(C#N)cc3)nc(NCCc3c[nH]c4ccccc34)c2n1", "++"),
]

For the next question, use this molecule.
Output AhR Antagonist Activity at 100 nM of CCn1cc2nc(-c3cccc(C#N)c3)nc(NCCc3c[nH]c4ccccc34)c2n1
+++

---

# measurement protocol: Pharmacokinetic study in mouse
# Type: in vivo, ICR mice
# condition summary: male, ICR, plasma, PO, 10 mg/kg
value type: Tmax (min)
Give the number; min is assumed, so skip it.

Output Tmax of CC(C)n1cc2nc(-c3cc(F)cc(F)c3)nc(NCCc3c[nH]c4ccccc34)c2n1
40.2

---

# measurement protocol: Pharmacokinetic study in mouse
# Type: in vivo, ICR mice
# condition summary: male, ICR, plasma, IV, 5 mg/kg
value type: half-life (h)
Give the number; h is assumed, so skip it.

Output half-life of CC(C)n1cc2nc(-c3cc(F)cc(F)c3)nc(NCCc3c[nH]c4ccccc34)c2n1
4.54

---

# system under test: AhR (Danio rerio, UniProt Q9YGV3)
# Sequence (Q9YGV3 1-1027): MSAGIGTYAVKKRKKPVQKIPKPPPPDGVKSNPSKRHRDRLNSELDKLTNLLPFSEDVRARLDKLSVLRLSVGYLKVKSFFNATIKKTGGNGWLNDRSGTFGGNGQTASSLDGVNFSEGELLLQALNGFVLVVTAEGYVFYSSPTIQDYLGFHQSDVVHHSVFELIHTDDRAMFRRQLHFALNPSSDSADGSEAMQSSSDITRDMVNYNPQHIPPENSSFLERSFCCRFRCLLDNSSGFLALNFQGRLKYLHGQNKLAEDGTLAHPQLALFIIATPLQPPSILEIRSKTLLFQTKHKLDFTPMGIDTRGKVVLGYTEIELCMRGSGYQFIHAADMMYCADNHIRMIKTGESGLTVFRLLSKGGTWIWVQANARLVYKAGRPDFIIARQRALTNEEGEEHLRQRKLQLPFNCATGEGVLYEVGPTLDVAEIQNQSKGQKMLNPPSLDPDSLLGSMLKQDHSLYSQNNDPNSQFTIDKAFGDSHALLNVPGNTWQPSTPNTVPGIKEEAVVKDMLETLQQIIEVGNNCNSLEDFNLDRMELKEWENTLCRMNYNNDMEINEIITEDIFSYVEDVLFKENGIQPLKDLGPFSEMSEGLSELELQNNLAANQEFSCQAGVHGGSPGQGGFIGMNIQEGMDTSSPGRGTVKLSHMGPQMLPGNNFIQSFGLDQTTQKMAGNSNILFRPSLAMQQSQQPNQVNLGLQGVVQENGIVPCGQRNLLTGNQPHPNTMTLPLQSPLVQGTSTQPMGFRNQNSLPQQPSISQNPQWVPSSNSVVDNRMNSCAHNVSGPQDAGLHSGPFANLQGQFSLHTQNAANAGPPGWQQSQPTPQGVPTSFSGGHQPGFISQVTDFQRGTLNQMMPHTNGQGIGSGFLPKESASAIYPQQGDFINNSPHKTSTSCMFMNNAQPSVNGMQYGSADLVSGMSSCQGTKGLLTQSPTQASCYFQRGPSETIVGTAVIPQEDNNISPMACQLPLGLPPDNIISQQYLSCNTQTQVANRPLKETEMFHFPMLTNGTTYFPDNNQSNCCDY
# Sequence (Q64FF9 1-503 partner): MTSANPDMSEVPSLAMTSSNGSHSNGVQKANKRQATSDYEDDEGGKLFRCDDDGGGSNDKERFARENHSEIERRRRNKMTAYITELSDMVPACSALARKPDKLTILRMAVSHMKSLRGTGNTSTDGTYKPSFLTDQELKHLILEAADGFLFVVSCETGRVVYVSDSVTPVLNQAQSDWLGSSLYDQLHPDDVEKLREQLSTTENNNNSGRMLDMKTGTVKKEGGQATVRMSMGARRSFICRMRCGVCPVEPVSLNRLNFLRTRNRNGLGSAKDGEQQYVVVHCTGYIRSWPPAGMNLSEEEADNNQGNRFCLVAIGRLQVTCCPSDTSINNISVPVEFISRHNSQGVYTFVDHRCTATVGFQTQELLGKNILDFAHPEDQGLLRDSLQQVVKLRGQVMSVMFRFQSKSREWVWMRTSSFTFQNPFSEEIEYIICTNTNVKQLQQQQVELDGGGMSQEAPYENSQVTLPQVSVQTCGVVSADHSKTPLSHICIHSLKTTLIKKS
# measurement protocol: IC50 determination, Cyp1a dual luciferase reporter assay in transfected COS-7 cells
# Type: cell-based
# condition summary: AhR2/ARNT-1c/Cyp1a-luciferase, TCDD 10 nM
Here, each record is paired with measured pIC50 data.
The read-out pIC50 is expressed as -log10 of concentration in moles per litre.

# molecule, value type, measurement
measured = [
    ("CC(C)n1cc2nc(-c3cc(F)cc(F)c3)nc(NCCc3c[nH]c4ccccc34)c2n1 [Compound 7k]", "pIC50", 7.86),
    ("CC(C)n1cnc2c(NCCc3ccc(O)cc3)nc(-c3csc4ccccc34)nc21 [SR-1, StemRegenin 1, reference compound]", "pIC50", 6.70),
]

Output pIC50 of CC(C)n1cc2nc(-c3cccc(OC(F)(F)F)c3)nc(NCCc3c[nH]c4ccccc34)c2n1 [Compound 7l]
6.52

Output pIC50 of CC(C)n1cc2nc(-c3cccc(C#N)c3)nc(NCCc3c[nH]c4ccccc34)c2n1 [Compound 7c]
6.77

---

# measurement protocol: Pharmacokinetic study in mouse
# Format: in vivo, ICR mice
# condition summary: male, ICR, plasma, IV, 5 mg/kg
value type: clearance (mL/min/kg)
Give the number; mL/min/kg is assumed, so skip it.

Output clearance of CC(C)n1cc2nc(-c3cc(F)cc(F)c3)nc(NCCc3c[nH]c4ccccc34)c2n1 [Compound 7k]
14.3
